System: Rabbit Skeletal myofibrils (rabbit psoas muscle)
protocol summary: Myofibril ATPase assay (PK/LDH NADH-coupled), skeletal myofibrils
Type: biochemical
experimental context: Table 7
Listing of recorded Rabbit Psoas IC25 by entry.
readout kind: Rabbit Psoas IC25 (µM)

{"smiles input": "N#Cc1cnc2c(n1)CC[C@H]2NC(=O)CN1C(=O)Nc2ccc(C#N)nc2C12CC2", "readout kind": "Rabbit Psoas IC25", "value": 100.00}
{"smiles input": "C[C@@H](NC(=O)CN1Cc2cnccc2NC1=O)c1ccc(C#N)cc1F", "readout kind": "Rabbit Psoas IC25", "value": 0.1315}
{"smiles input": "Cc1c(F)cnc2c1CN(CC(=O)N[C@@H](C)c1ccc(F)cc1F)C(=O)N2", "readout kind": "Rabbit Psoas IC25", "value": 6.748}
{"smiles input": "C[C@@H](NC(=O)CN1Cc2nc(C#N)ccc2NC1=O)c1ncc(F)cc1F", "readout kind": "Rabbit Psoas IC25", "value": 100}
{"smiles input": "C[C@H](NC(=O)CN1Cc2cc(Cl)cnc2NC1=O)c1ncc(F)cc1F", "readout kind": "Rabbit Psoas IC25", "value": 100}
{"smiles input": "C[C@@H](NC(=O)CN1Cc2c(ccnc2C#N)NC1=O)c1ccc(C#N)cc1F", "readout kind": "Rabbit Psoas IC25", "value": 0.2583}

---

target or system: Porcine Ventricle myofibrils (left ventricle of Yucatan minipigs) (Sus scrofa, UniProt P79293)
Construct: Myofibrils from porcine cardiac muscle was isolated from the left ventricle of Yucatan minipigs; tissue Exemplar Genetics; host or cells: left ventricle of Yucatan minipigs
Sequence (P79293 whole entry): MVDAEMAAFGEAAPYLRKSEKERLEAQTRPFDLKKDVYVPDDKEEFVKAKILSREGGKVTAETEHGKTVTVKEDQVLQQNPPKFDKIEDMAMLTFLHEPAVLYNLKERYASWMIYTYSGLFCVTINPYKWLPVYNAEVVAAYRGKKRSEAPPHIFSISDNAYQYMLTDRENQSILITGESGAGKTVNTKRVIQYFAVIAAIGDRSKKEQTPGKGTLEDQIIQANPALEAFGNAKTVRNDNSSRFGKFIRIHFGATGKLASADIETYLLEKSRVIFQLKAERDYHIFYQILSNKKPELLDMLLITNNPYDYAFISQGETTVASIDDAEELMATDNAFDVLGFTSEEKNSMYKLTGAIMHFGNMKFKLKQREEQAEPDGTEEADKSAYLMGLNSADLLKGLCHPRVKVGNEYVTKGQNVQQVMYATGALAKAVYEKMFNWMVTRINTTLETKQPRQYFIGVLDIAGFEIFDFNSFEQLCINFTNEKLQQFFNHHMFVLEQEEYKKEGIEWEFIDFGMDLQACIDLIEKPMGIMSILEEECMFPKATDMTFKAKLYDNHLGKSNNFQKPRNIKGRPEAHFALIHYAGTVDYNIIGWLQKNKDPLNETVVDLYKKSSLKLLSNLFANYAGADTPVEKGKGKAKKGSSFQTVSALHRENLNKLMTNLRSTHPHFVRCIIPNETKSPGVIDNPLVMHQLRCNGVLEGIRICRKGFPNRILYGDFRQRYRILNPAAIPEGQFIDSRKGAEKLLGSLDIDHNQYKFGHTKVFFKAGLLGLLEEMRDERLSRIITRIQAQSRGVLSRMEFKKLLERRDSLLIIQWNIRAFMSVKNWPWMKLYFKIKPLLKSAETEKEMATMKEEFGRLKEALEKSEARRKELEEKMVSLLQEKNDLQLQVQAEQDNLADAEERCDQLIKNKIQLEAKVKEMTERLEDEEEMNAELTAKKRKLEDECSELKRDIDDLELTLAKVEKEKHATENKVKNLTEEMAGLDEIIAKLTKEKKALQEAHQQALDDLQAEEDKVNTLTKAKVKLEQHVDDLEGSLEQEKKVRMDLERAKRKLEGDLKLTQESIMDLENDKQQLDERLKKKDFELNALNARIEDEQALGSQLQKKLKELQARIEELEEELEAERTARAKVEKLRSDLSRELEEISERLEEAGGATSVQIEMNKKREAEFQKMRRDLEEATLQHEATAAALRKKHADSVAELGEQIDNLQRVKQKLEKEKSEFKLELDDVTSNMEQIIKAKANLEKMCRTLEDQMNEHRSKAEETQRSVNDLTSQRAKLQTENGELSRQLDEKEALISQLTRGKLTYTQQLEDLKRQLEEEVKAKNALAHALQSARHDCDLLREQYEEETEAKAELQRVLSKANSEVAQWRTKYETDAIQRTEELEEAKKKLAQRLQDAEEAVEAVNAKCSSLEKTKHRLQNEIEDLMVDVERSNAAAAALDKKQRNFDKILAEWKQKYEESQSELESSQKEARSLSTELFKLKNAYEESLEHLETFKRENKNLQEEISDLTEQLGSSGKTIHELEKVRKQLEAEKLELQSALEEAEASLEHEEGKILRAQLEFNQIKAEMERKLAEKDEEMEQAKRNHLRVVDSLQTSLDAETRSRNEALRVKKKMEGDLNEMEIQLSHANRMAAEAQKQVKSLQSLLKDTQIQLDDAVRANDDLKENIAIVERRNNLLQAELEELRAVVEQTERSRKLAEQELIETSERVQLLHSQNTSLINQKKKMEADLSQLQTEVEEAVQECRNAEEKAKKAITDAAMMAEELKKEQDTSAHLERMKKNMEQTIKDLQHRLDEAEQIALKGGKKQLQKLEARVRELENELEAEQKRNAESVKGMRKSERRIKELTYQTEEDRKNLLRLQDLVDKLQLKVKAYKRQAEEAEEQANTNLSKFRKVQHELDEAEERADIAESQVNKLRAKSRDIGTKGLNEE
protocol summary: Myofibril ATPase assay (PK/LDH NADH-coupled), ventricle myofibrils
Type: biochemical
experimental context: Table 8
Listing of recorded Porcine Ventricle IC25 by entry.

{"compound": "C[C@@H](C(=O)N[C@H](CO)c1ncc(F)cc1F)N1Cc2c(Cl)cccc2NC1=O", "Porcine Ventricle IC25": "100 µM"}
{"compound": "CC(NC(=O)CN1Cc2c(ccc(F)c2F)NC1=O)c1ncc(C#N)cc1F (stereo not drawn)", "Porcine Ventricle IC25": "0.0768 µM"}
{"compound": "C[C@@H](NC(=O)C(C)(C)N1Cc2c(ccc(F)c2F)NC1=O)c1ncc(C#N)cc1F", "Porcine Ventricle IC25": "1.38 µM"}

---

Tested on: Rabbit Skeletal myofibrils (rabbit psoas muscle)
protocol summary: Myofibril ATPase assay (PK/LDH NADH-coupled), skeletal myofibrils
Assay type: biochemical
experimental context: Table 8
Decision: Rabbit Psoas IC25 >= 0.6 µM yields Met, all other cases yield Not met.

{"molecule": "Cc1cccc2c1C1(CC1)N(CC(=O)N[C@@H](C)c1cnc(C#N)cn1)C(=O)N2", "answer label": "Met"}
{"molecule": "C[C@H](NC(=O)CN1Cc2cc(F)cc(Cl)c2NC1=O)c1ccc(C#N)cc1F", "answer label": "Not met"}
{"molecule": "Cc1ncnc([C@H](C)NC(=O)CN2Cc3c(ccc(F)c3F)NC2=O)c1F", "answer label": "Met"}
{"molecule": "Cc1cc(F)cc2c1NC(=O)N(CC(=O)N[C@@H](C)c1ccc(C#N)cc1F)C2", "answer label": "Not met"}
{"molecule": "CC(NC(=O)CN1Cc2cc(F)ccc2NC1=O)c1ccc(C#N)cc1F (stereo not shown) [Compound B78]", "answer label": "Not met"}
{"molecule": "C[C@H](NC(=O)CN1Cc2c(ccc(F)c2F)NC1=O)c1ccc(Cl)cn1", "answer label": "Not met"}
{"molecule": "Cc1ncc(F)c([C@H](C)NC(=O)CN2Cc3c(ccc(F)c3F)NC2=O)n1", "answer label": "Met"}
{"molecule": "C[C@H](NC(=O)CN1Cc2c(ccc(F)c2F)NC1=O)c1ncc(-n2ncnn2)cc1F", "answer label": "Met"}
{"molecule": "Cc1cnc([C@@H](C)NC(=O)CN2Cc3cc(F)ccc3NC2=O)c(F)c1", "answer label": "Met"}
{"molecule": "C[C@@H](NC(=O)CN1Cc2c(ccc(F)c2C#N)NC1=O)c1ccc(C#N)cn1", "answer label": "Not met"}
{"molecule": "Cc1cc([C@H](C)NC(=O)CN2Cc3c(ccc(F)c3F)NC2=O)ncc1C#N (single isomer, unassigned)", "answer label": "Met"}
{"molecule": "C[C@H](NC(=O)CN1Cc2c(ccc(F)c2F)NC1=O)c1cc2c(cn1)OCCN2", "answer label": "Met"}
{"molecule": "O=C(CN1Cc2c(ccc(F)c2F)NC1=O)N[C@H]1CS(=O)(=O)c2cc(F)cc(F)c21", "answer label": "Met"}
{"molecule": "C[C@H](NC(=O)CN1Cc2c(ccc(F)c2F)NC1=O)c1ncncc1F", "answer label": "Not met"}
{"molecule": "N#Cc1cc(F)c2c(c1)OC[C@@H]2NC(=O)CN1C(=O)Nc2cccc(C#N)c2C12CC2", "answer label": "Met"}
{"molecule": "Cc1cc(C#N)cnc1[C@@H](C)NC(=O)CN1Cc2c(ccc(F)c2F)NC1=O", "answer label": "Met"}
